Experiment: Single escalating dose, age and food-effect pharmacokinetic study of T-62 soft gelatin capsules (Example 11)
Type: in vivo
Details: human, plasma, po, 1200 mg, Part A, young healthy subjects, fasted; single oral dose 12 × 100 mg (oral dosage form 4); arithmetic mean (SD); n = 9

compound	Cmax
Nc1sc2c(c1C(=O)c1ccc(Cl)cc1)CCCC2	157 ng/mL

###

Assay: Multiple escalating dose pharmacokinetic study of T-62 soft gelatin capsules (Example 12)
Format: in vivo
Conditions: both sexes, human, plasma, po, 100 mg, Steady state (Day 6), 100 mg BID (oral dosage form 4), healthy adults; arithmetic mean (SD); n = 8
assay-metric: Cmax (ng/mL)

compound	unit-of-measure	measured-value
Nc1sc2c(c1C(=O)c1ccc(Cl)cc1)CCCC2	ng/mL	55.9
